Test system: immune mediated inflammation (uninjected hind paw)
Assay: adjuvant arthritis standard pharmacological test procedure
Type: in vivo, male inbread Wistar Lewis rats
Settings: 2 mg/kg oral, day 16
measured-endpoint: Percent change in adjuvant arthritis versus control (%)
Give just the numeric value; % need not be written.

Worked set:
CO[C@H]1C[C@@H]2CC[C@@H](C)[C@@](O)(O2)C(=O)C(=O)N2CCCC[C@H]2C(=O)O[C@H]([C@H](C)C[C@@H]2CC[C@@H](OC(=O)C3(C)CCN(C)CC3)[C@H](OC)C2)CC(=O)[C@H](C)/C=C(\C)[C@@H](O)[C@@H](OC)C(=O)[C@H](C)C[C@H](C)/C=C/C=C/C=C/1C [Example 12]
-75
CO[C@H]1C[C@@H]2CC[C@@H](C)[C@@](O)(O2)C(=O)C(=O)N2CCCC[C@H]2C(=O)O[C@H]([C@H](C)C[C@@H]2CC[C@@H](OC(=O)C(C)(C)CCc3cccnc3)[C@H](OC)C2)CC(=O)[C@H](C)/C=C(\C)[C@@H](O)[C@@H](OC)C(=O)[C@H](C)C[C@H](C)/C=C/C=C/C=C/1C [Example 8]
-50
CO[C@H]1C[C@@H]2CC[C@@H](C)[C@@](O)(O2)C(=O)C(=O)N2CCCC[C@H]2C(=O)O[C@H]([C@H](C)C[C@@H]2CC[C@@H](OC(=O)C(C)(C)CCCc3cccnc3)[C@H](OC)C2)CC(=O)[C@H](C)/C=C(\C)[C@@H](O)[C@@H](OC)C(=O)[C@H](C)C[C@H](C)/C=C/C=C/C=C/1C [Example 6]
-45

immune mediated inflammation (uninjected hind paw) / Percent change in adjuvant arthritis versus control / CO[C@H]1C[C@@H]2CC[C@@H](C)[C@@](O)(O2)C(=O)C(=O)N2CCCC[C@H]2C(=O)O[C@H]([C@H](C)C[C@@H]2CC[C@@H](OC(=O)C(C)(C)Cc3cccnc3)[C@H](OC)C2)CC(=O)[C@H](C)/C=C(\C)[C@@H](O)[C@@H](OC)C(=O)[C@H](C)C[C@H](C)/C=C/C=C/C=C/1C [Example 2] : value? -62

immune mediated inflammation (uninjected hind paw) / Percent change in adjuvant arthritis versus control / CO[C@H]1C[C@@H]2CC[C@@H](C)[C@@](O)(O2)C(=O)C(=O)N2CCCC[C@H]2C(=O)O[C@H]([C@H](C)C[C@@H]2CC[C@@H](OC(=O)C(C)(C)CCc3ccccn3)[C@H](OC)C2)CC(=O)[C@H](C)/C=C(\C)[C@@H](O)[C@@H](OC)C(=O)[C@H](C)C[C@H](C)/C=C/C=C/C=C/1C [Example 5] : value? -75

immune mediated inflammation (uninjected hind paw) / Percent change in adjuvant arthritis versus control / CO[C@H]1C[C@@H]2CC[C@@H](C)[C@@](O)(O2)C(=O)C(=O)N2CCCC[C@H]2C(=O)O[C@H]([C@H](C)C[C@@H]2CC[C@@H](OC(=O)C(C)(C)Cc3ccncc3)[C@H](OC)C2)CC(=O)[C@H](C)/C=C(\C)[C@@H](O)[C@@H](OC)C(=O)[C@H](C)C[C@H](C)/C=C/C=C/C=C/1C [Example 9] : value? -73

immune mediated inflammation (uninjected hind paw) / Percent change in adjuvant arthritis versus control / CO[C@H]1C[C@@H]2CC[C@@H](C)[C@@](O)(O2)C(=O)C(=O)N2CCCC[C@H]2C(=O)O[C@H]([C@H](C)C[C@@H]2CC[C@@H](OC(=O)C(C)(C)Cc3ccccn3)[C@H](OC)C2)CC(=O)[C@H](C)/C=C(\C)[C@@H](O)[C@@H](OC)C(=O)[C@H](C)C[C@H](C)/C=C/C=C/C=C/1C [Example 7] : value? -78
